B1: H2-Kb / B5 (parent)
chain 1: TQTVSQSDAHVTVFEGDSVELRCNYSYGGSIYLSWYIQHHGHGLQFLLKYYSGNPVVQGVNGFEAEFSKSDSSFHLRKASVHWSDSAVYFCAVSLYQGGRALIFGTGTTVSVSP
chain 2: EAGVTQSPRYAVLQEGQAVSFWCDPISGHDTLYWYQQPRDQGPQLLVYFRDEAVIDNSQLPSDRFSAVRPKGTNSTLKIQSAKQGDTATYLCASSFAGGARAEQFFGPGTRLTVL
chain 3: not shown
chain 4: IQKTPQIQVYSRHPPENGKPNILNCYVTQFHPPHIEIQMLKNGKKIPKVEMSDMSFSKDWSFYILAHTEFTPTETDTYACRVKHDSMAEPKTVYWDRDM
chain 5: SIINFEKL

# Variants of: B1
# procedure.summary: % of reporter cells activated (NFAT-GFP), raw; note: test concentration or dose not given here
# test.parameters: with B5; scale: % of reporter cells activated
readout.label: ratio to parent

Here are 4 variants together with their reported answers.
variant.spec: chain 5 F5H
ratio to parent: 0.556

variant.spec: chain 5 I3D
ratio to parent: 1

variant.spec: chain 5 I3G
ratio to parent: 0.917

variant.spec: chain 5 S1A
ratio to parent: 1.43

[a] chain 5 E6C
[b] chain 5 I3F
[c] chain 5 N4T
[d] chain 5 F5V
**Q:** Sequence the entries by ratio to parent, beginning with the highest number. # respond with the labels, arranged in the requested order
**A:** d, a, b, c
(d: 3.75, a: 1.38, b: 0.958, c: 0.514)

[A] chain 5 S1R
[B] chain 5 F5T
**Q:** Between the two listed entries A and B , which has its ratio to parent at the higher number? In your reply, give the label of the chosen option.
**A:** A

[I] chain 5 N4S
[II] chain 5 F5R
**Q:** For I and II , which recorded ratio to parent is lower? Select an item and report its label.
**A:** I

Measured values drawn from paper PMC11480844 for this set.
